# Test system: Pseudomonas aeruginosa
# ASSAY_REMARKS: Antimicrobial activity against Pseudomonas aeruginosa MTCC 741 by broth dilution method
# Format: functional
EXPERIMENTAL_READOUT: MIC
In your response, the unit should come after the numeric value.

// query Recorded MIC for COC(=O)c1ccc2[nH]cc(C(C(=O)c3ccccc3)C3C(=O)Nc4ccccc43)c2c1 (stereo not drawn) with Pseudomonas aeruginosa, please?
// result 18.8 mg/L

Others:
// query Recorded MIC for N#Cc1ccc2[nH]cc(C(C(=O)c3ccccc3)C3C(=O)Nc4ccccc43)c2c1 (stereo not drawn) with Pseudomonas aeruginosa, please?
// result 150 mg/L

// query Recorded MIC for Cn1cc(C(C(=O)c2ccccc2)C2C(=O)Nc3ccccc32)c2ccccc21 (stereo not drawn) with Pseudomonas aeruginosa, please?
// result 18.8 mg/L

* * *

# Tested on: Pseudomonas aeruginosa
# ASSAY_REMARKS: Antimicrobial activity against Pseudomonas aeruginosa MTCC 741 by broth dilution method
# Assay type: functional
EXPERIMENTAL_READOUT: MIC
In your response, the unit should come after the numeric value.

// query Fill in the blank: the reported MIC of Cc1[nH]c2ccc([N+](=O)[O-])cc2c1C(C(=O)c1ccccc1)C1C(=O)Nc2ccccc21 (centres undefined) is ____.
// result 150 µg/mL

Others:
// query Fill in the blank: the reported MIC of CC1(C)S[C@@H]2[C@H](NC(=O)Cc3ccccc3)C(=O)N2[C@H]1C(=O)O [PENICILLIN G] is ____.
// result 12.5 µg/mL

// query Fill in the blank: the reported MIC of O=C1Nc2ccccc2C1C(C(=O)c1ccccc1)c1c[nH]c2ccccc12 (centres undefined) is ____.
// result 9.38 µg/mL

// query Fill in the blank: the reported MIC of Cc1[nH]c2ccccc2c1C(C(=O)c1ccccc1)C1C(=O)Nc2ccccc21 (centres undefined) is ____.
// result 18.8 µg/mL

// query Fill in the blank: the reported MIC of O=C1Nc2ccccc2C1C(C(=O)c1ccccc1)c1c[nH]c2ccc(Cl)cc12 (centres undefined) is ____.
// result 9.38 µg/mL

// query Fill in the blank: the reported MIC of O=C1Nc2ccccc2C1C(C(=O)c1ccccc1)c1c[nH]c2ccc([N+](=O)[O-])cc12 (centres undefined) is ____.
// result 9.38 µg/mL

// query Fill in the blank: the reported MIC of O=C1Nc2ccccc2C1C(C(=O)c1ccccc1)c1c[nH]c2ccc(Br)cc12 (centres undefined) is ____.
// result 18.8 µg/mL

// query Fill in the blank: the reported MIC of CN[C@@H]1[C@H](O[C@H]2[C@H](O[C@H]3[C@H](O)[C@@H](O)[C@H](N=C(N)N)[C@@H](O)[C@@H]3N=C(N)N)O[C@@H](C)[C@]2(O)C=O)O[C@@H](CO)[C@H](O)[C@H]1O [STREPTOMYCIN] is ____.
// result 1.56 µg/mL

// query Fill in the blank: the reported MIC of O=C1Nc2ccccc2C1C(C(=O)c1ccccc1)c1c(-c2ccccc2)[nH]c2ccccc12 (centres undefined) is ____.
// result 9.38 µg/mL

* * *

Attribute: zone of inhibition at 150 µg/disc
# Test system: Diutina rugosa
# ASSAY_REMARKS: Antifungal activity against Candida rugosa at 150 ug after 48 hrs by agar well diffusion method
# Format: functional
# MEASUREMENT_CONDITIONS: read-out: DIZ
Field: numeric (mm). Do not append units.

// query Fill in the blank: the reported zone of inhibition at 150 µg/disc of COC(=O)c1ccc2[nH]cc(C(C(=O)c3ccccc3)C3C(=O)Nc4ccccc43)c2c1 (stereo not given) is ____.
// result 15

// query Fill in the blank: the reported zone of inhibition at 150 µg/disc of N#Cc1ccc2[nH]cc(C(C(=O)c3ccccc3)C3C(=O)Nc4ccccc43)c2c1 (stereo not given) is ____.
// result 11

// query Fill in the blank: the reported zone of inhibition at 150 µg/disc of Cc1[nH]c2ccccc2c1C(C(=O)c1ccccc1)C1C(=O)Nc2ccccc21 (stereo not given) is ____.
// result 13

// query Fill in the blank: the reported zone of inhibition at 150 µg/disc of O=C1Nc2ccccc2C1C(C(=O)c1ccccc1)c1c(-c2ccccc2)[nH]c2ccccc12 (stereo not given) is ____.
// result 17

Kindly review the next compound as well.
// query Fill in the blank: the reported zone of inhibition at 150 µg/disc of O=C1Nc2ccccc2C1C(C(=O)c1ccccc1)c1c[nH]c2ccc(Br)cc12 (stereo not given) is ____.
// result 15

* * *

# System: Diutina rugosa
# ASSAY_REMARKS: Antifungal activity against Candida rugosa at 150 ug after 48 hrs by agar well diffusion method
# Format: functional
# MEASUREMENT_CONDITIONS: read-out: DIZ
EXPERIMENTAL_READOUT: zone of inhibition at 150 µg/disc (mm)
Field: numeric (mm). Do not append units.

As a guide, the following entries are already answered.
// query Fill in the blank: the reported zone of inhibition at 150 µg/disc of O=C1Nc2ccccc2C1C(C(=O)c1ccccc1)c1c[nH]c2ccc([N+](=O)[O-])cc12 (stereo not given) is ____.
// result 0

// query Fill in the blank: the reported zone of inhibition at 150 µg/disc of Cn1cc(C(C(=O)c2ccccc2)C2C(=O)Nc3ccccc32)c2ccccc21 (stereo not given) is ____.
// result 16

// query Fill in the blank: the reported zone of inhibition at 150 µg/disc of Cc1[nH]c2ccc([N+](=O)[O-])cc2c1C(C(=O)c1ccccc1)C1C(=O)Nc2ccccc21 (stereo not given) is ____.
// result 0

// query Fill in the blank: the reported zone of inhibition at 150 µg/disc of O=C1Nc2ccccc2C1C(C(=O)c1ccccc1)c1c[nH]c2ccccc12 (stereo not given) is ____.
// result 16

Kindly review the next molecule as well.
// query Fill in the blank: the reported zone of inhibition at 150 µg/disc of O=C1Nc2ccccc2C1C(C(=O)c1ccccc1)c1c[nH]c2ccc(Cl)cc12 (stereo not given) is ____.
// result 17
